Where do these numbers come from? They come from patent US20160376353A1.

# tested system: T1, Biotin-labeled N2 peptide (also: biotin label, position not given here)
# T1 construct: also called immobilized N2
# T1 peptide: LMKNMDPLNDNV
# experimental details: SPR (BIACORE X100), biotin-N2 peptide on NeutrAvidin chip, antibody in solution; steady state affinity
Ends that are not written are not given here.
I'd appreciate it if you could supply pKd values for the items below.
Convention used: pKd is expressed as -log10 of the molar concentration.

Fill blank: measured pKd of the binder Chimeric 21G6, human heavy chain constant region IgG4 (antibody, V domains shown, Human IgG4 constant region; also called CHIgG4 / Ch; ch21G6 IgG4) VH: QVQLQQPGAELVKPGASVKLSCKASGYTFTSYYMYWVKQRPGQGLEWIGGINPSNGGTNFNEKFKSKATLTVDKSSSTAYMQLSSLTSEDSAVYYCTRWGYDREWFAYWGQGTLVTVSA VL: DIVMTQAAPSVPVTPGESVSISCRSSKSLLHSNGNTYLYWFLQRPGQSPQVLIYRMSNLASGVPDRFSGSGSGTAFTLRISRVEAEDVGVYYCMQHLEYPFTFGSGTKLEIKR is ____.
6.95

Next: H3-21G6 / L1-21G6 (Table 2, constant region not stated) (antibody, V domains shown, human kappa light chain; also called H3/L1) VH: QVQLVQSGAEVKKPGSSVKVSCKASGYTFTSYYMYWVRQAPGQGLEWIGGINPSNGGTNFNEKFKSKATITVDKSTSTAYMELSSLRSEDTAVYYCTRWGYDREWFAYWGQGTLVTVSS VL: DIVMTQSPATLSVSPGERATISCRSSKSLLHSNGNTYLYWFQQKPGQPPKVLIYRMSNLASGVPARFSGSGSGTDFTLTISSVEPEDFATYYCMQHLEYPFTFGGGTKLEIKR
6.55

Next: H2-21G6 / L3-21G6 (Table 2, constant region not stated) (antibody, V domains shown, human kappa light chain; also called H2/L3) VH: QVQLVQSGAEVKKPGASVKVSCKASGYTFTSYYMYWVRQAPGQGLEWIGGINPSNGGTNFNEKFKSKATMTVDKSTSTAYMELRSLRSDDSAVYYCTRWGYDREWFAYWGQGTLVTVSS VL: DIVMTQTPLSLSYTPGQPASISCRSSKSLLHSNGNTYLYWFLQKPGQSPQLLIYRMSNLASGVPDRFSGSGSGTDFTLKISRVEAEDVGVYYCMQHLEYPFTFGQGTKLEIKR
6.17
